assay: NCI Yeast Anticancer Drug Screen. Data for the sgs1 mgt1 strain (AID 161);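 further: 0% = growth of cultures given vehicle only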; conditions: S. cerevisiae sgs1 mgt1 strain, at 50.0 µM, hits give high values
The panel holds about 79,000 compounds, 15% with a hit somewhere; the sample as a whole holds those more often.
measured_quantity: growth inhibition (%)
The answer is to be given in %; state only the numeric part.

These recorded examples may help you get a feel for the data.
>>> endpoint_result("CCCCS(=O)(=O)CCCCCCl")
-6.25
>>> endpoint_result("CCOC(=O)N1Cc2cc3ccccc3nc2C1CC(=O)O (stereo unspecified)")
-3.6
>>> endpoint_result("NC(=O)C(=CNc1nc(-c2ccc(Cl)c(Cl)c2)cs1)C(N)=O")
-29.4
>>> endpoint_result("CC1=CC2(C)OC3C(=O)N(c4ccc(Cl)cc4)C(=O)C3C2N=C1 (stereo unspecified)")
-24
>>> endpoint_result("CN(C)c1nc(N/N=C\\C(O)C(O)C(O)C(O)CO)nc(N(C)C)n1 (stereo unspecified)")
-7.1

So for Cc1cc2nnnn2c2ccccc12 , the logged growth inhibition turned out to be -17.1

What the record says about CCOC(=O)Nc1nc2ccccc2n1CN1CCCCC1 : growth inhibition is 23.4
